- Experimental Target: T1, Soluble heterodimeric CD3 protein (hCD3-epsilon/hCD3-delta) with either a human Fc tag (hFcΔAdp/hFc) or a … (human, UniProt P07766 23-126; P04234 22-105)
- T1 construct: also called hCD3ε/δ; not shown: Fc tag: human (hFcΔAdp/hFc)
- T1 sequence (P07766 23-126 limits assumed, stated change not applied, chain 1 of 2): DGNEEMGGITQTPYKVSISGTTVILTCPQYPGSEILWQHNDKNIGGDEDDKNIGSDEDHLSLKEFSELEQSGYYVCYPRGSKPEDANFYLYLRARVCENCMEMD
- T1 sequence (P04234 22-105 limits assumed, stated change not applied, chain 2 of 2): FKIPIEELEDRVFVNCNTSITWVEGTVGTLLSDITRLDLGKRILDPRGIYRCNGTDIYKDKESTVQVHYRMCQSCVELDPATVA
- Assay Notes: SPR Biacore 25C antigen-capture
Quantity Kind: T½ (h)

# Binder, Reported Result
rows = [
    ("H2M2690N (antibody, mouse IgG2, V domains shown, H2M: mouse IgG2 Fc, human variable regions; divalent) VH: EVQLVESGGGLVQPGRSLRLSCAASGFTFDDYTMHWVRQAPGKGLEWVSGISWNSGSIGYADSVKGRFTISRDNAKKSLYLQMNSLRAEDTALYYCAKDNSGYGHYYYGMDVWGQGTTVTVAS VL: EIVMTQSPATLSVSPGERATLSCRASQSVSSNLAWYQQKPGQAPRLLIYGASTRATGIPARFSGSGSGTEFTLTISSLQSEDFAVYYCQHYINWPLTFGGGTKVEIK", 30.3),
    ("H2M2885N (antibody, mouse IgG2, V domains shown, H2M: mouse IgG2 Fc, human variable regions; divalent) VH: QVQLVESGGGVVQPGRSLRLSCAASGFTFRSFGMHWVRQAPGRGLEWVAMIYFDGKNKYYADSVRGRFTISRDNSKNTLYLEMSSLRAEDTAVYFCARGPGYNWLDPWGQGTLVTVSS VL: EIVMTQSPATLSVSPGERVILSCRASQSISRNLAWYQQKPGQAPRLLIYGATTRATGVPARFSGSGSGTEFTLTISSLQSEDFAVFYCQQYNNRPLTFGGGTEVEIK", 1.27),
    ("H1H5763P (antibody, human IgG1, V domains shown, H1H: human IgG1 Fc; divalent) VH: QVQLVESGGGVVQPGRSLRLSCAASGLTFSSYGMHWVRQAPGKGLEWVAVISYDGSNKYYTDSVKGRFTISRDNSKNTLYLQMNSLRAEDTAVYYCAKGAMVRGVPYNYYYGMDVWGQGTTVTVSS VL: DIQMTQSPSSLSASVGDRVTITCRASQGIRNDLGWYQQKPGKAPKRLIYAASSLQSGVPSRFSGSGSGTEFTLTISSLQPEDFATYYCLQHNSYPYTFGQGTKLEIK", 0.0167),
]
